Measured values drawn from patent US20250134855A1 for this set.

Assay: Study MPKF: plasma pharmacokinetics of MDMA and MDA, single 120 mg MDMA·HCl, fasted/fed
Type: in vivo, human
Conditions: human, plasma, oral, 120 mg, fasted treatment group; .5 h; read-out: PK plasma concentration, Mean
Protocol: The MPKF was a Phase 1, open-label, randomized sequence, multi-dose, 2-period crossover food effect study in 16 healthy individuals. The MPKF study evaluated plasma concentrations of both MDMA and the active metabolite 3,4-methylenedioxyamphetamine (MDA). […] Sample Collection: Blood samples were collected at various time points up to 72 hours after dosing. The samples were analyzed using validated liquid chromatography-tandem mass spectrometry (LC-MS/MS) methods. […]
Assay Readout: concentration at 0.5 h (ng/mL)
Give bare numbers, in ng/mL.

-- ask // returns reported concentration at 0.5 h for input CNC(C)Cc1ccc2c(c1)OCO2 (stereo not shown) [MDMA, 3,4-methylenedioxymethamphetamine]
-- reply 23.1

====

Experiment: Study MPKF: plasma pharmacokinetics of MDMA and MDA, single 120 mg MDMA·HCl, fasted/fed
Type: in vivo, human
Details: human, plasma, po, 120 mg, Fed N = 11; 120 mg MDMA·HCl; preliminary; arithmetic mean; read-out: AUC0-t
Assay Readout: AUC(0-t) (ng·h/mL)
Numbers only, in ng·h/mL.

-- ask // returns reported AUC(0-t) for input CNC(C)Cc1ccc2c(c1)OCO2 (stereo not shown)
-- reply 3060

====

Assay: Study MPKF: plasma pharmacokinetics of MDMA and MDA, single 120 mg MDMA·HCl, fasted/fed
Format: in vivo, human
Settings: human, plasma, oral, 120 mg, fed treatment group; 72 h; read-out: PK plasma concentration, Median
Assay Readout: concentration at 72 h (ng/mL)
Numbers only, in ng/mL.

-- ask // returns reported concentration at 72 h for input CNC(C)Cc1ccc2c(c1)OCO2 (stereo not shown)
-- reply 0

====

Test: Study MPKF: plasma pharmacokinetics of MDMA and MDA, single 120 mg MDMA·HCl, fasted/fed
Type: in vivo, human
Details: human, plasma, oral, 120 mg, fed treatment group; 12 h; read-out: PK plasma concentration, Mean
Assay Readout: concentration at 12 h (ng/mL)
One number for each entry, in ng/mL.

-- ask // returns reported concentration at 12 h for input CNC(C)Cc1ccc2c(c1)OCO2 (stereo not shown) [MDMA, 3,4-methylenedioxymethamphetamine]
-- reply 129

====

Task for the reader: assign each of the following molecules its reported AUC(0-t).
Test: Study MPKF: plasma pharmacokinetics of MDMA and MDA, single 120 mg MDMA·HCl, fasted/fed
Assay type: in vivo, human
Conditions: human, plasma, oral, 120 mg, Fed; read-out: AUC0-t, Geometric LSM
Give bare numbers, in ng·h/mL.

Would you be so kind as to report AUC(0-t) for each listed record?
1. CNC(C)Cc1ccc2c(c1)OCO2 (centres unmarked)
2. CC(N)Cc1ccc2c(c1)OCO2 (centres unmarked)

-- reply
3110
254

====

Assay: Study MPKF: plasma pharmacokinetics of MDMA and MDA, single 120 mg MDMA·HCl, fasted/fed
Type: in vivo, human
Details: human, plasma, oral, 120 mg, fasted treatment group; 72 h; read-out: PK plasma concentration, Geom. Mean
Assay Readout: concentration at 72 h (ng/mL)
Answers are plain numbers, in ng/mL.

-- ask // returns reported concentration at 72 h for input CNC(C)Cc1ccc2c(c1)OCO2 (stereo not shown)
-- reply 6.25
